Target: human PCSK9 / human LDLR EGFa domain interaction (Homo sapiens (Human))
Sequence (Q8NBP7 153-692): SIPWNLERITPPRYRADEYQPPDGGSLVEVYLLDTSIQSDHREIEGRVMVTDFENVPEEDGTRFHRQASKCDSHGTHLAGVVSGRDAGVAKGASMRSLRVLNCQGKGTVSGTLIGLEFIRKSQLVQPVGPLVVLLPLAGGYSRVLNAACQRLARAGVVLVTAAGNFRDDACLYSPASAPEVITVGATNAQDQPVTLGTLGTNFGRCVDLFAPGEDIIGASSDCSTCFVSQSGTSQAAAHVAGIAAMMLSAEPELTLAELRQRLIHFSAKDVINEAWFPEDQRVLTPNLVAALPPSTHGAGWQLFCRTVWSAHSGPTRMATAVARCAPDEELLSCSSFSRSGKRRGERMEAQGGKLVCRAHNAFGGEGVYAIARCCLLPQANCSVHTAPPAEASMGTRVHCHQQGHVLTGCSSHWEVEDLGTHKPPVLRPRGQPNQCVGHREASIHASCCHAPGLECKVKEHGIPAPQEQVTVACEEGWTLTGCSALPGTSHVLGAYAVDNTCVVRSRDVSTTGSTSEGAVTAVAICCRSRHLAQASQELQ
Sequence (Q8NBP7 31-152 partner): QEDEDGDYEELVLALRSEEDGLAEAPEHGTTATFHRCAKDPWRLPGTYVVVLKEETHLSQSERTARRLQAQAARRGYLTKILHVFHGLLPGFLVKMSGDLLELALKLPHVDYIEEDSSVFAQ
Experiment: TR-FRET assay of inhibition of the PCSK9-LDLR protein-protein interaction
Format: binding
Conditions: TR-FRET, 20 nM human PCSK9, 20 nM human LDLR EGFa domain, 2 hours room temperature; read-out: IC50
Starred links: 1 amine or outer side, 2 acyl side, 3 side chain; linkers in the order of their positions; H or OH if unused. Positions of bridges follow the written chain, without caps; N, C: chain ends. Non-standard residues stand in square brackets, D forms with d. Residues, ends and D or L forms follow the SMILES beside them. X38 = NC(=O)[C@H](CSCc1cccc(C[*:1])c1)NC(=O)[C@@H]1CCCC1C(=O)[C@H](Cc1ccc(OCC2CCCCC2)cc1)N[*:2]; Trp(5-F) = N[C@@H](Cc1c[nH]c2ccc(F)cc12)C(=O)O; X11 = COc1ccc(C[C@H](N[*:1])C(=O)[*:2])cc1C; X4 = O=C(CCSCc1cccc(CSCCN[*:1])c1)[*:2]; mXylylene = c1cc(C[*:1])cc(C[*:2])c1; αMeP = C[C@@]1(C(=O)O)CCCN1; hSer = N[C@@H](CCO)C(=O)O; Orn = NCCC[C@H](N)C(=O)O; Mpa = O=C(O)CCS

compound	IC50
C[C@@H](O)[C@@H]1NC(=O)[C@@H]2CCCN2C(=O)[C@H](Cc2c[nH]c3ccc(F)cc23)NC(=O)[C@H](Cc2c[nH]c3ccc(F)cc23)NC(=O)CNC(=O)[C@H](CCCCN)NC(=O)CCSCc2cccc(c2)CSC[C@@H](C(N)=O)NC(=O)[C@]2(C)CCCN2C(=O)[C@H](Cc2ccc(O)cc2)NC1=O [Compound 014] ([Mpa]KG[Trp(5-F)][Trp(5-F)]PTY[αMeP]C-NH2; linker 1-10 via mXylylene)	100 to 1000 nM
COc1ccc(C[C@@H]2NC(=O)[C@H](Cc3c[nH]cn3)NC(=O)[C@H](CC(=O)O)NC(=O)[C@H](Cc3c[nH]c4ccc(F)cc34)NC(=O)[C@H](Cc3c[nH]c4ccc(F)cc34)NC(=O)[C@@H](C)NC(=O)[C@H](CCCCN)NC(=O)CCSCc3cccc(c3)CSCCNC(=O)[C@]3(C)CCCN3C2=O)cc1C [Compound 387] (cyclo(DH[X11][αMeP][X4]K[dA][Trp(5-F)][Trp(5-F)]))	0.1 to 100 nM
NCCC[C@@H]1NC(=O)CCSCc2cccc(c2)CSC[C@@H](C(N)=O)NC(=O)[C@@H]2CCCC2C(=O)[C@H](Cc2ccc(OCC3CCCCC3)cc2)NC(=O)[C@H](Cc2cnc[nH]2)NC(=O)[C@H](CC(=O)O)NC(=O)[C@H](Cc2c[nH]c3ccc(F)cc23)NC(=O)[C@H](Cc2c[nH]c3ccc(F)cc23)NC(=O)CNC1=O (some centres unmarked) [Compound 340] ([Mpa][Orn]G[Trp(5-F)][Trp(5-F)]DH; linker 1-C via X38)	0.1 to 100 nM
COc1ccc(C[C@@H]2NC(=O)[C@H](Cc3cnc[nH]3)NC(=O)[C@H](CC(=O)O)NC(=O)[C@H](Cc3c[nH]c4cc(F)ccc34)NC(=O)[C@H](Cc3c[nH]c4ccc(F)cc34)NC(=O)[C@@H](C)NC(=O)[C@H](CCCCN)NC(=O)CCCc3cn(nn3)-c3ccc(cc3)C[C@@H](C(N)=O)NC(=O)[C@]3(C)CCCN3C2=O)cc1 [Compound 369]	0.1 to 100 nM
C[C@@]12CCCN1C(=O)[C@H](Cc1ccc(O)cc1)NC(=O)[C@H](Cc1cnc[nH]1)NC(=O)[C@H](CC(=O)O)NC(=O)[C@H](Cc1c[nH]c3ccc(F)cc13)NC(=O)[C@H](Cc1c[nH]c3ccc(F)cc13)NC(=O)CNC(=O)[C@H](CCO)NC(=O)CCSCc1cccc(c1)CSC[C@@H](C(N)=O)NC2=O [Compound 376] ([Mpa][hSer]G[Trp(5-F)][Trp(5-F)]DHY[αMeP]C-NH2; linker 1-10 via mXylylene)	0.1 to 100 nM

====

Target: PCSK9 (Homo sapiens (Human))
Experiment: PCSK9 Alexa FRET Standard assay (displacement of AlexaFluor647 tagged cyclic peptide Reagent A)
Type: binding
Conditions: PCSK9 Alexa FRET Standard assay, 0.5 nM PCSK9, 20 nM AF cyclic peptide Reagent A; read-out: IC50
pIC50: −log10 of the molar value. Starred links: 1 amine or outer side, 2 acyl side, 3 side chain; linkers in the order of their positions; H or OH if unused. Positions of bridges follow the written chain, without caps; N, C: chain ends. Non-standard residues stand in square brackets, D forms with d. Residues, ends and D or L forms follow the SMILES beside them. Trp(5-F) = N[C@@H](Cc1c[nH]c2ccc(F)cc12)C(=O)O; Nle(6-COOH) = N[C@@H](CCCCC(=O)O)C(=O)O; X4 = O=C(CCSCc1cccc(CSCCN[*:1])c1)[*:2]; X7 = O=C(Cc1ccc(CN[*:1])cc1)[*:2]; αMeP = C[C@@]1(C(=O)O)CCCN1; Orn = NCCC[C@H](N)C(=O)O; X2 = O=C(C[*:2])[*:1]

compound	pIC50
COc1ccc(C[C@@H]2NC(=O)[C@H](Cc3cnc[nH]3)NC(=O)[C@H](CC(=O)O)NC(=O)[C@H](Cc3c[nH]c4ccc(F)cc34)NC(=O)[C@H](Cc3c[nH]c4ccc(F)cc34)NC(=O)[C@@H](C)NC(=O)[C@H](CCCCC(=O)O)NC(=O)CCSCc3cccc(c3)CSCCNC(=O)[C@]3(C)CCCN3C2=O)cc1 [Compound 425] (cyclo(DHY(Me)[αMeP][X4][Nle(6-COOH)][dA][Trp(5-F)][Trp(5-F)]))	7.00 to 9.96
COc1ccc(C[C@@H]2NC(=O)[C@H](Cc3cnc[nH]3)NC(=O)[C@H](CC(=O)O)NC(=O)[C@H](Cc3c[nH]c4ccc(F)cc34)NC(=O)[C@H](Cc3c[nH]c4ccc(F)cc34)NC(=O)[C@@H](C)NC(=O)Cc3ccc(cc3)CNC(=O)C[C@@H](C(N)=O)NC(=O)[C@]3(C)CCCN3C2=O)cc1 [Compound 403] ([X7][dA][Trp(5-F)][Trp(5-F)]DHY(Me)[αMeP]D-NH2; lactam N-9)	4.92 to 6.00
CC(=O)N[C@H]1CCCNC(=O)COc2ccc(cc2)C[C@@H](C(N)=O)NC(=O)[C@]2(C)CCCN2C(=O)[C@H](Cc2ccc(O)cc2)NC(=O)[C@H](Cc2cnc[nH]2)NC(=O)[C@H](CC(=O)O)NC(=O)[C@H](Cc2c[nH]c3ccc(F)cc23)NC(=O)[C@H](Cc2c[nH]c3ccc(F)cc23)NC(=O)CNC(=O)[C@H](C)NC1=O [Compound 364] (Ac-[Orn]AG[Trp(5-F)][Trp(5-F)]DHY[αMeP]Y-NH2; linker 1-10 via X2)	6.00 to 7.00

====

Target: PCSK9 (Homo sapiens (Human))
Assay: PCSK9 Alexa FRET Standard assay (displacement of AlexaFluor647 tagged cyclic peptide Reagent A)
Format: binding
Conditions: PCSK9 Alexa FRET Standard assay, 0.5 nM PCSK9, 20 nM AF cyclic peptide Reagent A; read-out: IC50
Starred links: 1 amine or outer side, 2 acyl side, 3 side chain; linkers in the order of their positions; H or OH if unused. Positions of bridges follow the written chain, without caps; N, C: chain ends. Non-standard residues stand in square brackets, D forms with d. Residues, ends and D or L forms follow the SMILES beside them. X38 = NC(=O)[C@H](CSCc1cccc(C[*:1])c1)NC(=O)[C@@H]1CCCC1C(=O)[C@H](Cc1ccc(OCC2CCCCC2)cc1)N[*:2]; NHCH2(1,3-C6H4)CH2CO = O=C(Cc1cccc(CN[*:1])c1)[*:2]; Ala(imidazol-2-yl) = N[C@@H](Cc1ncc[nH]1)C(=O)O; Phe(4-COOH) = N[C@@H](Cc1ccc(C(=O)O)cc1)C(=O)O; Trp(5-F) = N[C@@H](Cc1c[nH]c2ccc(F)cc12)C(=O)O; Trp(6-F) = N[C@@H](Cc1c[nH]c2cc(F)ccc12)C(=O)O; Phe(4-CH2NH2) = NCc1ccc(C[C@H](N)C(=O)O)cc1; X3 = O=C(CCSCc1cc(F)cc(CSCCN[*:1])c1)[*:2]; X4 = O=C(CCSCc1cccc(CSCCN[*:1])c1)[*:2]; mXylylene = c1cc(C[*:1])cc(C[*:2])c1; Adipoyl = O=C(CCCCC(=O)[*:2])[*:1]; Hyp = O=C(O)[C@@H]1C[C@@H](O)CN1; αMeP = C[C@@]1(C(=O)O)CCCN1; Orn = NCCC[C@H](N)C(=O)O; X2 = O=C(C[*:2])[*:1]; Mpa = O=C(O)CCS
Reported IC50 by item:

molecule	IC50
C[C@@]12CCCN1C(=O)[C@H](Cc1ccc(O)cc1)NC(=O)CN1C(=O)[C@@H](N=C(C3CCCCC3)c3ccccc31)NC(=O)[C@H](Cc1c[nH]c3ccc(F)cc13)NC(=O)[C@H](Cc1c[nH]c3ccc(F)cc13)NC(=O)CNC(=O)[C@H](CCCCN)NC(=O)CCSCc1cccc(c1)CSC[C@@H](C(N)=O)NC2=O	0.11 to 100 nM
COc1ccc(C[C@@H]2NC(=O)[C@@H]([C@H](C)O)NC(=O)[C@@H]3C[C@@H](O)CN3C(=O)[C@H](Cc3c[nH]c4ccc(F)cc34)NC(=O)[C@H](Cc3c[nH]c4ccc(F)cc34)NC(=O)[C@@H](C)NC(=O)[C@H](CCCCN)NC(=O)CCSCc3cc(F)cc(c3)CSCCNC(=O)[C@]3(C)CCCN3C2=O)cc1 [Compound 087] (cyclo([Hyp][dT]Y(Me)[αMeP][X3]K[dA][Trp(5-F)][Trp(5-F)]))	21000 to 50000 nM
COc1ccc(C[C@@H]2NC(=O)[C@@H]3CCCCC(=O)N[C@H]4C[C@@H](C(=O)N3)N(C4)C(=O)[C@H](Cc3c[nH]c4ccc(F)cc34)NC(=O)[C@H](Cc3c[nH]c4ccc(F)cc34)NC(=O)[C@@H](C)NC(=O)[C@H](CCCN)NC(=O)CCSCc3cccc(c3)CCSCNC(=O)[C@]3(C)CCCN3C2=O)cc1	0.11 to 100 nM
COc1ccc(C[C@@H]2NC(=O)[C@H](Cc3ncc[nH]3)NC(=O)[C@H](CC(=O)O)NC(=O)[C@H](Cc3c[nH]c4ccc(F)cc34)NC(=O)[C@H](Cc3c[nH]c4ccc(F)cc34)NC(=O)[C@@H](C)NC(=O)[C@H](C)NC(=O)CCSCc3cccc(c3)CSCCNC(=O)[C@]3(C)CCCN3C2=O)cc1 [Compound 407] (cyclo(A[dA][Trp(5-F)][Trp(5-F)]D[Ala(imidazol-2-yl)]Y(Me)[αMeP][X4]))	21000 to 50000 nM
CC(=O)N[C@H]1CCCNC(=O)c2ccc(cc2)C[C@@H](C(N)=O)NC(=O)[C@]2(C)CCCN2C(=O)[C@H](Cc2ccc(O)cc2)NC(=O)[C@H](Cc2cnc[nH]2)NC(=O)[C@H](CC(=O)O)NC(=O)[C@H](Cc2c[nH]c3cc(F)ccc23)NC(=O)[C@H](Cc2c[nH]c3ccc(F)cc23)NC(=O)CNC(=O)[C@H](C)NC1=O [Compound 314] (Ac-[Orn]AG[Trp(5-F)][Trp(6-F)]DHY[αMeP][Phe(4-COOH)]-NH2; lactam 1-10)	1000 to 12100 nM
C[C@@H](O)[C@@H]1NC(=O)[C@H](Cc2c[nH]c3ccc(F)cc23)NC(=O)[C@H](Cc2c[nH]c3ccc(F)cc23)NC(=O)CNC(=O)[C@H](CCCCN)NC(=O)CCSCc2cccc(c2)CSC[C@@H](C(N)=O)NC(=O)[C@@H]2CCCN2C(=O)[C@H](Cc2ccc(O)cc2)NC(=O)[C@H](Cc2c[nH]cn2)NC1=O [Compound 224] ([Mpa]KG[Trp(5-F)][Trp(5-F)]THYPC-NH2; linker 1-10 via mXylylene)	100 to 1000 nM
C[C@@H]1NC(=O)CCCCC(=O)NCc2ccc(cc2)C[C@@H](C(N)=O)NC(=O)[C@]2(C)CCCN2C(=O)[C@H](Cc2ccc(O)cc2)NC(=O)[C@H](Cc2cnc[nH]2)NC(=O)[C@H](CC(=O)O)NC(=O)[C@H](Cc2c[nH]c3ccc(F)cc23)NC(=O)[C@H](Cc2c[nH]c3ccc(F)cc23)NC(=O)CNC1=O [Compound 370] (AG[Trp(5-F)][Trp(5-F)]DHY[αMeP][Phe(4-CH2NH2)]-NH2; linker N-9 via Adipoyl)	100 to 1000 nM
NCCC[C@@H]1NC(=O)CCSCc2cccc(c2)CSC[C@@H](C(N)=O)NC(=O)[C@@H]2CCCC2C(=O)[C@H](Cc2ccc(OCC3CCCCC3)cc2)NC(=O)[C@H](Cc2cnc[nH]2)NC(=O)[C@H](CC(=O)O)NC(=O)[C@H](Cc2c[nH]c3ccc(F)cc23)NC(=O)[C@H](Cc2c[nH]c3ccc(F)cc23)NC(=O)CNC1=O (stereo partly shown) [Compound 340] ([Mpa][Orn]G[Trp(5-F)][Trp(5-F)]DH; linker 1-C via X38)	100 to 1000 nM
COc1ccc(C[C@@H]2NC(=O)[C@H](Cc3cnc[nH]3)NC(=O)[C@H](CC(=O)O)NC(=O)[C@H](Cc3c[nH]c4ccc(F)cc34)NC(=O)[C@H](Cc3c[nH]c4ccc(F)cc34)NC(=O)[C@@H](C)NC(=O)Cc3cccc(c3)CNC(=O)c3ccc(cc3)C[C@@H](C(N)=O)NC(=O)[C@]3(C)CCCN3C2=O)cc1 [Compound 390] ([NHCH2(1,3-C6H4)CH2CO][dA][Trp(5-F)][Trp(5-F)]DHY(Me)[αMeP][Phe(4-COOH)]-NH2; lactam N-9)	100 to 1000 nM
CC(=O)N[C@H]1CCCCNC(=O)COc2ccc(cc2)C[C@@H](C(N)=O)NC(=O)[C@]2(C)CCCN2C(=O)[C@H](Cc2ccc(O)cc2)NC(=O)[C@H](Cc2cnc[nH]2)NC(=O)[C@H](CC(=O)O)NC(=O)[C@H](Cc2c[nH]c3ccc(F)cc23)NC(=O)[C@H](Cc2c[nH]c3ccc(F)cc23)NC(=O)CNC1=O [Compound 365] (Ac-KG[Trp(5-F)][Trp(5-F)]DHY[αMeP]Y-NH2; linker 1-9 via X2)	0.11 to 100 nM
